binders and their reported pKd
- SUBJECT OF TEST: T1, APBA1_2, Q02410
- T1 sequence (Q02410 742-832, limits assumed, looked up): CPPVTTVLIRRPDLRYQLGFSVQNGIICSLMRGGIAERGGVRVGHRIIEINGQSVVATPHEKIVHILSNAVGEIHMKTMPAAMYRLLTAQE
- ASSAY METHOD TEXT: holdup assay
- Design: key: below the threshold = too weak to quantify, mostly under pKd 3.1 to 4
- SETUP CONDITIONS: plain residues with an end cap or a label only (N-terminal biotin on a linker: ado-ado)
Note: the reply should be a number with no unit written.

Determine from records and report pKd for NTLNRKTTPV [CACNG8, Q8WXS5] 3.91

Determine from records and report pKd for DGVNEKVSCV [HTR2A, P28223] 4
